In this section we review reported IC50 values for a set of molecules.
# measurement target: Human PDE10A2 (Homo sapiens (Human))
# Sequence (Q9Y233 267-1055): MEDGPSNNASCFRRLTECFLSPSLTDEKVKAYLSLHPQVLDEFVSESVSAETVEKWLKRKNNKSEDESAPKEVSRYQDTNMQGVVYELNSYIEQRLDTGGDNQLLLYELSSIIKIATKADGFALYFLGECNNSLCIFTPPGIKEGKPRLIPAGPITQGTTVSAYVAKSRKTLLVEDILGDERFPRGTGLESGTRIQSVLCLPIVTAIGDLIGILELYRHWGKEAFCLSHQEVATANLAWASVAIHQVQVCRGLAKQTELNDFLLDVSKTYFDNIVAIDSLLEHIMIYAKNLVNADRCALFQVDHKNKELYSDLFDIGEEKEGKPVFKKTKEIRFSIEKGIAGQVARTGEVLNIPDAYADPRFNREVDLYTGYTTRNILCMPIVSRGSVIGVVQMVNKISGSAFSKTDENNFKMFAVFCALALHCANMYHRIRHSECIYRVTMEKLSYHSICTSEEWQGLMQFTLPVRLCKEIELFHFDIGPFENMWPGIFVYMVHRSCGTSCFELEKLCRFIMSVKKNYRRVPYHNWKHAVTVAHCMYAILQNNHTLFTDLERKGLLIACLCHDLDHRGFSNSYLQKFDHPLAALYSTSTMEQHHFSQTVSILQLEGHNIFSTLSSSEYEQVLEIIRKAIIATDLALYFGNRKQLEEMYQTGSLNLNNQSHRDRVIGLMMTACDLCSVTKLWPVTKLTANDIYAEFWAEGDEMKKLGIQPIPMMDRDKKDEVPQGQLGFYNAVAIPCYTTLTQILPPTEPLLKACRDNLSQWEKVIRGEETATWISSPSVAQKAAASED
# experiment summary: Cell based human PDE10A activity assay - cAMP HTRF assay in HEK 293 rhPDE10A2 cell line
# protocol conditions: Forskolin 10 μM; read-out: cAMP HTRF Assay in HEK 293 rhPDE10A2 cell line (pIC50) (converted)

compound structure: O=C(O)c1cc(COc2ccc(-c3n[nH]cc3-c3ccncc3)cc2)nc2ccccc12
measurement target: Human PDE10A2 (Homo sapiens (Human))
IC50 (nM): 0.138
//
compound structure: Cn1cc(-c2ccncc2)c(-c2ccc(OCc3nc4ccccc4cc3C(=O)N=S3(=O)CCCC3)cc2)n1
measurement target: Human PDE10A2 (Homo sapiens (Human))
IC50 (nM): 0.977
//
compound structure: Cn1cc(-c2ccncc2)c(-c2ccc(OCc3cc(NC(=O)N=S(C)(C)=O)c4ccccc4n3)cc2)n1
measurement target: Human PDE10A2 (Homo sapiens (Human))
IC50 (nM): 16.6
//
compound structure: CS(C)(=O)=NC(=O)c1cc(COc2ccc(-c3nn(CC(F)(F)F)cc3-c3ccncc3)cc2)nc2ccccc12
measurement target: Human PDE10A2 (Homo sapiens (Human))
IC50 (nM): 0.38

Every entry's value here was drawn from patent US20240336591A1.
